system: RXF 393 renal; experiment: NCI tumour cell line growth inhibition, 48 h
Please provide measured TGI for the entries that follow.
Give just the number in µM; leave the unit off.

Q) Recorded TGI for Clc1ccc(C2CC(c3cccc(Nc4ccncc4)c3)=NN2c2ccc(Cl)cc2)cc1 (stereo not given) , please?
A) 2.94

Q) Now this one: O=[N+]([O-])c1cccc(-c2nc(-c3ccc(Cl)cc3Cl)cn2-c2ccccc2)c1
A) 2.08

Q) Now this one: C=C1C(=O)O[C@H]2C1C[C@@H](O)/C(C)=C/CC[C@@]1(C)O[C@H]21 (stereo not given in full)
A) 26.5

Q) Now this one: Cc1coc2c1C(=O)C(=O)c1ccccc1-2
A) 3.12
